Values from patent US20230295130A1

Target: CDK7/Cyclin H/MAT1 kinase (Homo sapiens (Human))
Sequence (P50613 whole entry): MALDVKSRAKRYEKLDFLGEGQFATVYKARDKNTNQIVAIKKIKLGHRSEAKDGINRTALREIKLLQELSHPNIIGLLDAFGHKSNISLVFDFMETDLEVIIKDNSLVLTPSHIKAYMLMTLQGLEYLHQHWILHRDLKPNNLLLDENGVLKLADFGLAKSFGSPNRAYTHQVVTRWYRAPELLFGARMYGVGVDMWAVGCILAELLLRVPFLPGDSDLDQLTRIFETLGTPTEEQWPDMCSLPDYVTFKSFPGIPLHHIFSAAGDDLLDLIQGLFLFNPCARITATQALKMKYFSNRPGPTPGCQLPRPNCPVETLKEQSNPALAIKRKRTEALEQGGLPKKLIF
Sequence (P51946 whole entry partner): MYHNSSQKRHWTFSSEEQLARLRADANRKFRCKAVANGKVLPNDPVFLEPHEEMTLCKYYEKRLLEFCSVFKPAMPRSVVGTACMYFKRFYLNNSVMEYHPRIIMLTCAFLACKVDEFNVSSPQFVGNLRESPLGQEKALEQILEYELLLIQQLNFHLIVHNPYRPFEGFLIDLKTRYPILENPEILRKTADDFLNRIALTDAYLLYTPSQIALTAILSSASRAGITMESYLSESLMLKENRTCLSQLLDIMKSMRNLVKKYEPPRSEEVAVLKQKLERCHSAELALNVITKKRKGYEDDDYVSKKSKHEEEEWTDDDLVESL
Sequence (P51948 whole entry partner): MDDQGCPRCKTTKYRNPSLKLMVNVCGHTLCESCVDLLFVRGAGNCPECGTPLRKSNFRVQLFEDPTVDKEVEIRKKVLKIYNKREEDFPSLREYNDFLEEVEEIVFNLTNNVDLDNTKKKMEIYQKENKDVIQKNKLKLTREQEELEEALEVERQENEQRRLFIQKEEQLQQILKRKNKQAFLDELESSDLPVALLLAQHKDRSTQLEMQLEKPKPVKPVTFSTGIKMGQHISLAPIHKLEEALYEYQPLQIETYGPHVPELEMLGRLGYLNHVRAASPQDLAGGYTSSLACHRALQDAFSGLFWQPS
Assay: Enzyme activity test, mobility shift assay (Table 1)
Assay type: biochemical
Conditions: 2 mM ATP; pre-incubated 0 and 60 minutes
Reported endpoint: IC50

Molecule: CCOc1c(NC(=O)OC)ccc2c(-c3nc(N[C@H]4CCCN(C)C4)ncc3C(F)(F)F)c[nH]c12 [Example T-161]
Reported endpoint: IC50
Experimental result: < 50 nM

So, COC(=O)Nc1ccc2c(-c3nc(N[C@H]4CCCNC4)ncc3C(F)(F)F)c[nH]c2c1SC(C)C [Example T-66] ? Its IC50 was < 50 nM

So, COC(=O)Nc1ccc2c(-c3nc(N[C@H]4CCC(C)(C)NC4)ncc3Cl)c[nH]c2c1CC(F)(F)F [Example T-86] ? Its IC50 was < 50 nM

So, COC(=O)Nc1ccc2c(-c3nc(N[C@H]4CCCNC4)ncc3C(F)(F)F)c[nH]c2c1C1CC1 [Example T-17] ? Its IC50 was < 50 nM

So, CCc1cnc(N[C@H]2CCCNC2)nc1-c1c[nH]c2c(Br)c(NC(=O)OC)ccc12 [Example T-77] ? Its IC50 was < 50 nM

So, COC(=O)N(C)c1ccc2c(-c3nc(N[C@H]4CCC(C)(C)NC4)ncc3C(F)(F)F)c[nH]c2c1P(C)(C)=O [Compound T-103] ? Its IC50 was < 50 nM
